Target: DRB5*0101
Test: binding to purified HLA
Settings: chains peptide; modification not given
pIC50: −log10 of the molar value.

| binder | pIC50 |
| --- | --- |
| AKFVAAWTLKAAA [SEQ ID NO: 3] | 7.72 |
